B1: library; numbered along this chain (parent)
chain: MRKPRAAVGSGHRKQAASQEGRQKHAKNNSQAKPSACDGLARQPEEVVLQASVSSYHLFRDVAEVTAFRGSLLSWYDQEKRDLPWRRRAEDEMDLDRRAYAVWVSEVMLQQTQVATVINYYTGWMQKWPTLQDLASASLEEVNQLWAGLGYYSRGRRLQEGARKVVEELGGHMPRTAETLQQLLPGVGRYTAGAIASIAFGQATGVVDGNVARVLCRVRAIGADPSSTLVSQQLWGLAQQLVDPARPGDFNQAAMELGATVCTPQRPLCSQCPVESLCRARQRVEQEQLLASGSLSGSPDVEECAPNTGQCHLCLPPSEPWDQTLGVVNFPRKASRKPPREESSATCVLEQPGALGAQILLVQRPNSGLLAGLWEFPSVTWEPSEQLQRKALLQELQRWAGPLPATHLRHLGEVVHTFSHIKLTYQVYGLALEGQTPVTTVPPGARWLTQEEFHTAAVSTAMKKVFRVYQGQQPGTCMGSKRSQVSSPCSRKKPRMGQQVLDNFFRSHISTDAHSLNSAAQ

Variants of: B1
Test: 8OG:A repair function score (normalized; synonymous = 0, nonsense = -1) (normalized log-likelihood score); higher = more repair activity (WT-like);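 note: cells sorted at 72 h after reporter transfection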
Conditions: with 8OG:A DNA repair reporter (GFP) in HEK-293 MUTYH KO cells
Class field: derived from 8OG:A repair function score; ranges lo = under -0.3, med = from -0.3 up to -0.07, hi = -0.07 and over

Task: // return the class label for E140L
Output: med

Task: // return the class label for C216H
Output: lo

Task: // return the class label for M478Q
Output: hi

Task: // return the class label for A115Q
Output: hi

Task: // return the class label for R506A
Output: hi

Task: // return the class label for R156Y
Output: lo

Task: // return the class label for H508K
Output: hi

Task: // return the class label for A357G
Output: hi

Task: // return the class label for A456H
Output: lo

Task: // return the class label for E451I
Output: med

Task: // return the class label for A259T
Output: lo

Task: // return the class label for A99N
Output: lo

Task: // return the class label for G475K
Output: hi

Task: // return the class label for Q232W
Output: lo

Task: // return the class label for Q435N
Output: med

Task: // return the class label for T191V
Output: med

Task: // return the class label for H508P
Output: hi

Task: // return the class label for L423T
Output: lo

Task: // return the class label for A194E
Output: lo

Task: // return the class label for A456V
Output: med

Task: // return the class label for W146S
Output: lo
